Attribution: patent US20180057581A1

# assay.system: native human M-CSF (in human serum or in MDA-MB-231 conditioned medium) (human), P09603
# Sequence (P09603 33-255): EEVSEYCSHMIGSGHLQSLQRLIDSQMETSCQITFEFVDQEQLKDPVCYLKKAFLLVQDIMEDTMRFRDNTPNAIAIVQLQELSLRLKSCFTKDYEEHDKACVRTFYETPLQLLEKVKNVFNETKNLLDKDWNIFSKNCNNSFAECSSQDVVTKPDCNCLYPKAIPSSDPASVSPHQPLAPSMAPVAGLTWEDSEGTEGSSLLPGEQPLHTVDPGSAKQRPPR
# experiment.notes: cell-based or functional assay
Hi there, I'd appreciate the recorded IC50, inhibition of M-NFS-60 proliferation induced by MDA-MB-231 conditioned medium for every entry that follows.
# value in nM; strip the unit string

Fill in reported IC50, inhibition of M-NFS-60 proliferation induced by MDA-MB-231 conditioned medium for this entry: Camille, IgG1_D265A (antibody, V domains shown) VH: QVQLQQSGPGLVKPSQTLSLTCAISGESVSTSSAAWNWIRQSPSRGLEWLGRTYYRSKWKHEYAVSVKSRITINPDTSKNQFSLQLNSVTPEDTAVYYCARDRYYYSAFDYWGQGTLVTVSS VL: QSALTQPASVSGSPGQSITISCTGTSSDVGGYNSVSWYQQHPGKAPKLLIYAVSNRPSGVSNRFSGSKSGNTASLTISGLQAEDEADYYCASYDERFTRVFGGGTKLTVLGQ
0.0985

// fetch IC50, inhibition of M-NFS-60 proliferation induced by MDA-MB-231 conditioned medium given entry Blanche, IgG1_D265A (antibody, V domains shown) VH: QVQLQQSGPGLVKPSQTLSLTCAISGDSVSSNSAAWNWIRQSPSRGLEWLGRTYYRSKWKHEYAMSVKSRITINPDTSKNQFSLQLNSVTPEDTAVYYCARDRYYYSAFDYWGQGTLVTVSS VL: DIALTQPASVSGSPGQSITISCTGTSSDVGGYNSVSWYQQHPGKAPKLMIYAVSNRPSGVSNRFSGSKSGNTASLTISGLQAEDEADYYCASYDERFTRVFGGGTKLTVLGQ
0.12
